Endpoint name: melting point

>  <Compound>
CC(C)Nc1ccc(-c2c(C#N)c3ccc(Oc4ncccc4C#N)cc3n2C2CC2)cc1 [Compound 3213]

>  <Endpoint result>
195 to 197 °C

$$$$

Which melting point reading was recorded for the compound CCCS(=O)(=O)Nc1ccc(-c2c(C#N)c3cc(C(=O)N(CC)CC)ccc3n2C2CCC2)cc1 [Compound 3095] ? 133 to 134 °C

Next compound: CC(C)OC(=O)Nc1ccc(-c2c(C#N)c3ccc(O[C@@H]4CCOC4)cc3n2C2CCC2)cc1 [Compound 2638] 196 to 197 °C

What about CCN(C)C(=O)c1ccc2c(C#N)c(-c3ccc(NC(=O)O[C@H](C)C4CC4)cc3)n(C3CCC3)c2c1 [Compound 2275] ? 114 to 117 °C

Also CC(C)OC(=O)Nc1ccc(-c2c(C#N)c3ccc(N4CCOCC4)cc3n2C2CCC2)cc1Cl [Compound 3011] ? 196 to 199 °C

// same read-out, input: CC(OC(=O)Nc1ccc(-c2c(C#N)c3ccc(OC4CCOC4)cc3n2C2CCC2)cc1)c1ccccc1 (stereo not drawn) [Compound 1456] 183 to 184 °C

Also need CCOc1ccc2c(C#N)c(-c3ccc(NC(=O)OCc4cnccn4)cc3)n(C3CCC3)c2c1 [Compound 1426] , thanks. 159 to 164 °C

Record: CCOc1ccc2c(C#N)c(-c3ccc(NC(=O)NC(C)COC)cc3)n(C3CCC3)c2c1 (stereo not drawn) [Compound 1441] 192 to 196 °C

Can you handle CC1(S(=O)(=O)Nc2ccc(-c3c(C#N)c4ccc(C(=O)N5CCOCC5)cc4n3C3CCC3)cc2)CC1 [Compound 2964] next? 248 to 250 °C

###

Endpoint name: melting point

The following compounds have reported results that may help.
>  <Compound>
CC(C)NC(=O)Nc1ccc(-c2c(C#N)c3cc(OC4COCOC4)ccc3n2C2CCC2)cc1

>  <Endpoint result>
179 to 181 °C

$$$$
>  <Compound>
CC(C)S(=O)(=O)Nc1ccc(-c2c(C#N)c3ccc(N4CCCC4)cc3n2C2CCC2)cc1

>  <Endpoint result>
256 to 261 °C

$$$$
>  <Compound>
COCCN(C)C(=O)c1ccc2c(C#N)c(-c3ccc(NS(=O)(=O)C4CC4)cc3)n(C3CCC3)c2c1

>  <Endpoint result>
201 to 203 °C

$$$$
>  <Compound>
N#Cc1c(-c2ccc(Nc3ccccn3)cc2)n(C2CCC2)c2cc(OC3CCOCC3)ccc12

>  <Endpoint result>
211 to 212 °C

$$$$
>  <Compound>
CCN(CC)C(=O)Oc1ccc(-c2c(C#N)c3ccc(OC)cc3n2CC)cc1

>  <Endpoint result>
134.2 to 139.5 °C

$$$$

May I ask what melting point has been recorded for C=CCNC(=O)Oc1ccc(-c2c(C#N)c3ccc(OC4CCOCC4)cc3n2C2CCC2)cc1 ? 167 to 168 °C

Moving on to CCOc1ccc2c(C#N)c(-c3ccc(S(=O)(=O)N4CCC(O)C4)cc3)n(C3CCC3)c2c1 (centres unmarked) 194 to 196 °C

###

Catalogue of melting point readings, one per entry.

Take a look at these entries with their results.
>  <Compound>
CCCS(=O)(=O)Nc1ccc(-c2c(C#N)c3ccc(Oc4ncccc4C(F)(F)F)cc3n2C2CC2)cc1 [Compound 2935]

>  <melting point>
216 to 217 °C

$$$$
>  <Compound>
CCOc1ccc2c(C#N)c(-c3ccc(S(=O)(=O)N4CCC[C@@H]4CO)cc3)n(C3CCC3)c2c1 [Compound 2690]

>  <melting point>
170 to 172 °C

$$$$
>  <Compound>
CCn1c(-c2ccc(N)cc2)c(C#N)c2ccc(OCCOC)cc21 [Compound 1366]

>  <melting point>
168 to 169 °C

$$$$

Record request: melting point value, item CCn1c(-c2ccc(NC(=O)N3CCCC3)cc2)c(C#N)c2ccc(OCCOC)cc21 [Compound 1381] 151 to 154 °C

Subsequent entry: CCn1c(-c2ccc(NC(=O)OC(C)C)cc2)c(C#N)c2ccc(OC3CCS(=O)(=O)CC3)cc21 [Compound 3230] 253 to 257 °C

Let us now turn to N#Cc1c(-c2ccc(Oc3cnccn3)cc2)n(C2CCC2)c2cc(OC3CCOCC3)ccc12 [Compound 3168] 167 to 170 °C

Continue with CC(C)NC(=O)Nc1ccc(-c2c(C#N)c3ccc(N4CCOCC4)cc3n2C2CCC2)cc1 [Compound 2862] 234 to 235 °C

CCn1c(-c2ccc(NC(=O)OCC(C)C)cc2)c(C#N)c2ccc(OCCOC)cc21 [Compound 1370] ? 145 to 148 °C

Next up: CCn1c(-c2ccc(NC(=O)OC)cc2)c(C#N)c2ccc(OCCOC)cc21 [Compound 1367] 191 to 194 °C

Quick one: CCCS(=O)(=O)Nc1ccc(-c2c(C#N)c3ccc(Oc4ncccc4C(=O)OCC)cc3n2C2CCC2)cc1 [Compound 3308] 138 to 142 °C

Proceed to CC(OC(=O)Nc1ccc(-c2c(C#N)c3ccc(OC4CCOC4)cc3n2C2CC2)cc1)c1ccccc1 (stereo not drawn) [Compound 1445] 112 to 115 °C

What about this compound? N#Cc1c(-c2ccc(NC3CCC3)nc2)n(C2CCC2)c2cc(Oc3ncccn3)ccc12 [Compound 3348] 229 to 231 °C
